All figures here come from PubChem BioAssay (NCI).

Tested on: SK-MEL-5 melanoma
test.name: NCI tumour cell line growth inhibition, 48 h
measurement.label: TGI

Below are worked cases with known answers.
1) COC(=O)C1=C(C)NC2(C)OC(C)(O)C(C(C)=O)C12C(C)=O (configuration not stated) : > 100 µM
2) Cc1ccc(C)c2c1CCc1cc3ccccc3nc1-2 : > 100 µM
3) C/C=C/C(=O)[O-].N.N.N.N.N.[Co+3].[O-][Cl+3]([O-])([O-])[O-] : > 100 µM
4) COc1cc(/C=C/c2cc(/C=C/c3ccc(O)c(OC)c3)[nH]c(=O)n2)ccc1O : 36.1 µM
5) CC(C)(O)CCC(O)C(C)(O)C1CCC2(O)C3=CC(=O)C4(O)CC(O)C(O)CC4(C)C3CCC12C (configuration not stated) (tested in a mixture with another compound) : > 100 µM

Form field: reported TGI of Nc1ccc(-c2nc3ccccc3s2)cc1
50.1 µM

Recorded TGI for O=C(/C=C/c1ccccc1)CCc1c(O)c2ccccc2oc1=O , please?
> 100 µM

###

List of GI50 values.
Tested on: HS 578T breast
test.name: NCI tumour cell line growth inhibition, 48 h

Look up GI50: CCCNc1cccc(-n2ncc3c(N/N=C/c4ccncc4)ncnc32)c1
1100 nM

Given the compound Cc1ccc(S(=O)(=O)c2ccsc2N)cc1 , what is its reported GI50?
> 100000 nM

Which GI50 is reported for this compound? CC(=O)O[C@H](C[C@H](C(C)C)N(C)C(=O)[C@@H](NC(=O)[C@H]1CCCCN1C)C(C)(C)C)c1nc(C(=O)N[C@@H](Cc2ccccc2)C[C@H](C)C(=O)O)cs1
< 2.5 nM

###

Tested on: K-562 leukemia
test.name: NCI tumour cell line growth inhibition, 48 h
measurement.label: TGI

Past entries and their recorded results:
1. N[C@H](C(=O)O)[C@@H](Cl)CC(=O)O : > 100 µM
2. COC(=O)c1nn(C(=N)c2ccc(Cl)cc2)c2c1CCCCC2 : > 100 µM

Next:
What value of TGI has been recorded for this entry: Cc1ccc(C)c2c1CCc1cc3ccccc3nc1-2
> 100 µM

###

Listed below: TGI values for each entry.
Tested on: MCF7 breast
test.name: NCI tumour cell line growth inhibition, 48 h

Solved cases below.
1. COc1cc(S(=O)(=O)N/N=C/c2cc(Br)c(O)c(OC)c2)c(OC)cc1NC(C)=O : > 100 µM
2. N#C/C(=C\c1cccnc1)c1nc2ccccc2o1 : > 100 µM
3. Cc1[nH]n(-c2ccccc2)c(=O)c1C(=O)c1ccccc1 : > 25 µM

Item Cn1c(=O)c2sc3cc4c(cc3c2c2ccccc21)sc1c(=O)n(C)c2ccccc2c14 has what recorded TGI?
> 100 µM

So what does the record say about TGI for COc1ccc(C2=NNC(=O)c3ccccc3N2c2nc(-c3cccs3)nc3ccc(Br)cc23)cc1 ?
> 100 µM

Returns the measured TGI for the input compound. Input: CCC1CCC2c3c([nH]c4ccccc34)C3C(=O)N(c4ccc(OC)cc4)C(=O)C3C2C1 (configuration not stated)
> 100 µM

Value lookup for TGI; key = S=C(Nc1ccccc1)N1CCn2c1nsc2=Nc1ccccc1
> 100 µM

Quick one: TGI for CN(C)c1ccc(/C=C2\C[C@H]3[C@@H]4CCc5cc(O)ccc5[C@H]4CC[C@]3(C)C2=O)cc1 ?
> 100 µM

Item under review: CC(C)(O)CCC(O)C(C)(O)C1CCC2(O)C3=CC(=O)C4(O)CC(O)C(O)CC4(C)C3CCC12C (configuration not stated) (tested in a mixture with another compound) . Reported TGI?
> 100 µM

Entry COc1ccc(S(=O)(=O)n2c3ccccc3n3ncc(-c4nnc(C)o4)c23)cc1 has what TGI?
> 69.8 µM

Which value of TGI has been reported for c1ccc2c(c1)c1c3n2-c2cc(on2)C3CCC1 (configuration not stated) in the records?
> 100 µM

Which value of TGI has been reported for O=c1oc2ccccc2c(O)c1Cc1cccc(Cc2c(O)c3ccccc3oc2=O)c1 in the records?
> 100 µM

###

The molecules listed here are annotated with their GI50.
Test system: T-47D breast
test.name: NCI tumour cell line growth inhibition, 48 h

Can you share its GI50? I mean this molecule: C[C@H]1CCC/C=C/[C@@H]2C[C@H](O)C[C@H]2[C@H](O)[C@@H](SC2OC(CO)C(O)C(O)C2O)CC(=O)O1 (stereo partly drawn)
> 100000 nM

Which GI50 is listed for Cc1c(N)nc(C(CC(N)=O)NCC(N)C(N)=O)nc1C(=O)NC(C(=O)NC(C)C(O)C(C)C(=O)NC(C(=O)NCCc1nc(-c2nc(C(=O)NCCCNCCCCN)cs2)cs1)C(C)O)C(OC1OC(CO)C(O)C(O)C1OC1OC(CO)C(O)C(OC(N)=O)C1O)c1cnc[nH]1 (stereo not drawn) ?
16.5 µg/mL

Reported GI50 for COc1ccc(S(=O)(=O)n2c3ccccc3n3ncc(-c4nnc(C)o4)c23)cc1 : what is it?
584 nM

###

System: EKVX NSCLC
test.name: NCI tumour cell line growth inhibition, 48 h
measurement.label: TGI

1) COC(=O)C12C3C4C1C1C2C3C41C(=O)N(C(C)C)C(C)C (stereo unspecified) : > 100 µM
2) CCOC(=O)C1=C(C)N(c2ccc(C)cc2)C2(O)C=CC(=O)C3=C(O)c4ccccc4C(=O)C312 (stereo unspecified) : > 100 µM
3) N#Cc1ccc2c(c1)C(=O)c1c-2n(CCCN=[N+]=[N-])c(=O)c2cc([N+](=O)[O-])ccc12 : > 50 µM
4) COc1ccc(N2C(=O)C(N3C(=O)C=CC3=O)C2C=O)cc1 (stereo unspecified) : > 100 µM
5) CCC1CCC2c3c([nH]c4ccccc34)C3C(=O)N(c4ccc(OC)cc4)C(=O)C3C2C1 (stereo unspecified) : > 100 µM

Quick check: TGI of O=C(NC/C=C/Br)NC1CCNc2ccccc21 (stereo unspecified) ?
92.6 µM

###

Test system: LOX IMVI melanoma
test.name: NCI tumour cell line growth inhibition, 48 h
measurement.label: TGI

1. O=C(O)c1cc2c(c3ccsc13)-c1ccccc1CC2 : > 100 µM
2. CSC1NNC2(C(=O)N1)c1ccccc1-c1ccccc12 (stereo unspecified) : > 10 µM
3. N[C@H](C(=O)O)[C@@H](Cl)CC(=O)O : > 100 µM
4. C/C(=C\CNc1nc(Cl)nc2nc[nH]c12)CO : > 100 µM
5. CC(=O)Nc1cc2cc(NS(=O)(=O)c3cc(C(F)(F)F)cc(C(F)(F)F)c3)ccc2oc1=O : > 100 µM

# query: TGI of entry O=c1/c(=C/c2ccc(-c3ccc(Cl)cc3Cl)o2)sc2n1[C@@H](c1ccc3c(c1)OCO3)C=C(c1cc(F)c(Cl)cc1Cl)N=2
> 100 µM

###

System: PC-3 prostate
test.name: NCI tumour cell line growth inhibition, 48 h
measurement.label: TGI

Known TGI results, listed for orientation:
1) NC(=S)N/N=C\c1nccc2c(C(F)(F)C(F)(F)C(F)(F)F)cccc12 : > 22.5 µM
2) S=C(Nc1ccccc1)N1CCn2c1nsc2=Nc1ccccc1 : > 100 µM

Which TGI value belongs to COC(=O)C(C(=O)OC)C1CC(=O)c2c(Br)sc(Br)c21 (stereo not drawn) ?
29 µM

Fill blank: measured TGI of the molecule Oc1ccc2ccccc2c1OCc1nnc(CCCCCCCCc2nnc(COc3c(O)ccc4ccccc34)o2)o1 is ____.
> 100 µM

So what does the record say about TGI for CC1(C)O[C@@H](CP(c2cccc3ccccc23)c2cccc3ccccc23)[C@H](CP(c2cccc3ccccc23)c2cccc3ccccc23)O1 ?
> 100 µM

Record request: TGI value, item N#Cc1c(C#N)c(-c2ccccc2)n(/N=C\c2ccccc2)c1N
49.4 µM

Look at this molecule and give its reported TGI. C=C1C(=O)O[C@H]2C3C(=C(C)CC[C@@H]12)C(=O)[C@@H]1OC31C (stereo partly drawn)
7.1 µM

###

Tested on: CAKI-1 renal
test.name: NCI tumour cell line growth inhibition, 48 h
measurement.label: TGI

1) O=C1OC2C=CC1C1(CCOC1=O)C2 (stereo unspecified) : > 100 µM
2) c1ccc(CNc2ncnc3n[nH]nc23)cc1 : > 100 µM
3) CN(C)C=Nc1nncc2n[nH]nc12 : > 100 µM
4) O=C(O)c1cc2c(c3ccsc13)-c1ccccc1CC2 : > 100 µM
5) O=C(NC/C=C/Br)NC1CCNc2ccccc21 (stereo unspecified) : > 100 µM

Would you kindly share the measured TGI for CC1(C)O[C@@H](CP(c2cccc3ccccc23)c2cccc3ccccc23)[C@H](CP(c2cccc3ccccc23)c2cccc3ccccc23)O1 ?
> 100 µM

###

System: OVCAR-4 ovarian
test.name: NCI tumour cell line growth inhibition, 48 h
measurement.label: TGI

Here's what some known entries look like.
1. Cc1ccc(C)c2c1CCc1cc3ccccc3nc1-2 : > 100 µM
2. COc1cc2c(cc1O)CC[C@@H]1C2CC[C@@]2(C)C1CC[C@@H]2O (stereo not given in full) : > 100 µM
3. CCN(CC)CCOc1nc2cc(OC)c(OC)cc2c2c1-c1ccc(OC)cc1C2=O : 33.5 µM

Value lookup for TGI; key = O=C(O)c1ccc2cccnc2c1O
> 100 µM

Recorded TGI for Cc1[nH]n(-c2ccccc2)c(=O)c1C(=O)c1ccccc1 , please?
> 25 µM
